- System: Meth-A sarcoma
- Assay Protocol: Anti-tumor effect on Balb/C mice inoculated with Meth-A Sarcoma
- Assay type: in vivo, female Balb/C mice
- Measurement Context: 10 mg/kg iv, Day 7; g ± standard error
- Description: (1) Anti-tumor effect on Balb/C mice inocudlated with Meth-A Sarcoma Anti-tumor effect was measured by the following procedure. Tumor cells which had been maintained in ascites of Balb/C mouse generation after generation was used. One group is consisting of eight female Balb/C mice. Meth-A sarcoma tumor (1×10^5 cells/0.05 ml) was inoculated into left side of female mice of 7-week old (body weight: 18-20 g). […]
Observation Type: Apperarent tumor weight (g)
# number only, unit g dropped from output

CCCCCCCCCCOc1ccc(C(=O)N[C@H]2[C@@H](OC)O[C@H](CO)[C@@H](OS(=O)(=O)O)[C@@H]2OC(=O)c2ccc(OCCCCCCCCCC)c(OCCCCCCCCCC)c2)cc1OCCCCCCCCCC [4(b)]
0.217
CCCCCCCCCCCCCC(=O)O[C@H]1[C@H](OS(=O)(=O)O)[C@@H](CO)OC(O)[C@@H]1NC(=O)c1ccc(OCCCCCCCCCC)c(OCCCCCCCCCC)c1 (stereo partly shown) [Example 4]
0.205
CCCCCCCCCCCCCC(=O)N[C@H]1C(O)O[C@H](CO)[C@@H](OS(=O)(=O)O)[C@@H]1OC(=O)c1ccc(OCCCCCCCCCC)c(OCCCCCCCCCC)c1 (stereo partly shown) [4(c)]
0.210

Quick check: Apperarent tumor weight of CCCCCCCCCCC[C@@H](CC(=O)N[C@H]1C(O)O[C@H](CO)[C@@H](OS(=O)(=O)O)[C@@H]1OC(=O)CCCCCCCCc1ccccc1)OC(=O)CCCCCCCCc1ccccc1 (stereo partly shown) [1(c)] ? 0.199
